B1: POMT2 (parent)
chain: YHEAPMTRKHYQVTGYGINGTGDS

- Variants of: B1
- TEST_NAME: protein stability index of a GFP-peptide fusion (GPS, HEK-293T) (PSI 1-6); higher = more stable;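 note: lentivirally expressed fusions sorted by FACS into six bins by GFP to DsRed ratio, PSI derived from sequencing read proportions per bin multiplied by bin number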
- SETTINGS: c terminus: a fixed tail appended
Binning of protein stability index into classes: I: < 2; II: ≥ 2 and < 3; III: ≥ 3

Qu. Looking at "YHEAPMTRKHYQRTGYGINGTGDS" , which class would you pick?
Ans. III

Qu. Looking at "YHVAPMTRKHYQVTGYGINGTGDS" , which class would you pick?
Ans. II

Qu. Looking at "YHEAPMTRKHYQVTGYGINGTGVS" , which class would you pick?
Ans. II

Qu. Looking at "YHEAPMTRKHVQVTGYGINGTGDS" , which class would you pick?
Ans. III

Qu. Looking at "YHEALMTRKHYQVTGYGINGTGDS" , which class would you pick?
Ans. I

Qu. Looking at "YHEAPMMRKHYQVTGYGINGTGDS" , which class would you pick?
Ans. II

Qu. Looking at "YHEWPMTRKHYQVTGYGINGTGDS" , which class would you pick?
Ans. II

Qu. Looking at "YHEAPMTRKHYQGTGYGINGTGDS" , which class would you pick?
Ans. II

Qu. Looking at "YHEAPMTRKHYQVTGYGVNGTGDS" , which class would you pick?
Ans. II

Qu. Looking at "YHEAMMTRKHYQVTGYGINGTGDS" , which class would you pick?
Ans. II

Qu. Looking at "YHEAPMTRKHYQVTGYYINGTGDS" , which class would you pick?
Ans. II

Qu. Looking at "YHEAPMTRKSYQVTGYGINGTGDS" , which class would you pick?
Ans. II

Qu. Looking at "YHEAPMTRKHYQVTGYGINGTRDS" , which class would you pick?
Ans. I

Qu. Looking at "YHESPMTRKHYQVTGYGINGTGDS" , which class would you pick?
Ans. I

Qu. Looking at "YHEAPMTRKHYQVTGYGINGTGTS" , which class would you pick?
Ans. I

Qu. Looking at "YHEAPMTWKHYQVTGYGINGTGDS" , which class would you pick?
Ans. I

Qu. Looking at "YHKAPMTRKHYQVTGYGINGTGDS" , which class would you pick?
Ans. I

Qu. Looking at "YHEAPMTRKHYQVQGYGINGTGDS" , which class would you pick?
Ans. II

Qu. Looking at "YHEAPMRRKHYQVTGYGINGTGDS" , which class would you pick?
Ans. I

Qu. Looking at "YHEAPMTRKHYQVTGYGIQGTGDS" , which class would you pick?
Ans. I

Qu. Looking at "YHEAPMGRKHYQVTGYGINGTGDS" , which class would you pick?
Ans. II

Qu. Looking at "DHEAPMTRKHYQVTGYGINGTGDS" , which class would you pick?
Ans. III

Qu. Looking at "YHEAPMTRKHYQVTGYGINGTPDS" , which class would you pick?
Ans. III

Qu. Looking at "YHEAPMTRKHYQVTGYGINCTGDS" , which class would you pick?
Ans. I

Qu. Looking at "YHEAPMTRKHYCVTGYGINGTGDS" , which class would you pick?
Ans. II

Qu. Looking at "YHEAPMTRKHYQVTGYGINGTSDS" , which class would you pick?
Ans. II

Qu. Looking at "YHEAPMTRKMYQVTGYGINGTGDS" , which class would you pick?
Ans. I

Qu. Looking at "YHEAPMTRKHYQWTGYGINGTGDS" , which class would you pick?
Ans. II

Qu. Looking at "YHEAPITRKHYQVTGYGINGTGDS" , which class would you pick?
Ans. II

Qu. Looking at "YHEAPMTRKHYQVTGYGKNGTGDS" , which class would you pick?
Ans. II

Qu. Looking at "YHAAPMTRKHYQVTGYGINGTGDS" , which class would you pick?
Ans. II

Qu. Looking at "YHEAPMTRKHYQVTGYGIMGTGDS" , which class would you pick?
Ans. II

Qu. Looking at "YHEAPMTRKHAQVTGYGINGTGDS" , which class would you pick?
Ans. III

Qu. Looking at "EHEAPMTRKHYQVTGYGINGTGDS" , which class would you pick?
Ans. III

Qu. Looking at "YHEAPMTRKHYQVTGYGINGTGDL" , which class would you pick?
Ans. I

Qu. Looking at "YHEAPMTRKHYQVTGYGANGTGDS" , which class would you pick?
Ans. II

Qu. Looking at "YHEAPMTRKHYQVTGYGINLTGDS" , which class would you pick?
Ans. II

Qu. Looking at "YHEAPMTRRHYQVTGYGINGTGDS" , which class would you pick?
Ans. I

Qu. Looking at "YHEAPMTRKHYQVTGYGINGTFDS" , which class would you pick?
Ans. II

Qu. Looking at "YHEAPMTRKHYQETGYGINGTGDS" , which class would you pick?
Ans. III

Qu. Looking at "YHEAPDTRKHYQVTGYGINGTGDS" , which class would you pick?
Ans. II

Qu. Looking at "YHHAPMTRKHYQVTGYGINGTGDS" , which class would you pick?
Ans. I

Qu. Looking at "YHEAPMTRKHYQVTGRGINGTGDS" , which class would you pick?
Ans. III

Qu. Looking at "YHEAPMTRKHDQVTGYGINGTGDS" , which class would you pick?
Ans. III

Qu. Looking at "YHEAPMTRKKYQVTGYGINGTGDS" , which class would you pick?
Ans. II

Qu. Looking at "YHEAPMTRKHYQVTYYGINGTGDS" , which class would you pick?
Ans. II

Qu. Looking at "YHEAPMTRKHYQVTGYGINGTGDV" , which class would you pick?
Ans. II

Qu. Looking at "YHEAPMTRKHYQVTGYGINGTLDS" , which class would you pick?
Ans. II

Qu. Looking at "YHEAPMTRKHYQDTGYGINGTGDS" , which class would you pick?
Ans. III

Qu. Looking at "YHEAPMTRKHYQVTGYGIEGTGDS" , which class would you pick?
Ans. I

Qu. Looking at "YHEAPMTRKHYQVTGQGINGTGDS" , which class would you pick?
Ans. II

Qu. Looking at "YHEAPMTRNHYQVTGYGINGTGDS" , which class would you pick?
Ans. II

Qu. Looking at "YHEAPMTRKHYQVTGYGINFTGDS" , which class would you pick?
Ans. II

Qu. Looking at "YHEAPMTRKHYQVTGYRINGTGDS" , which class would you pick?
Ans. II

Qu. Looking at "YHEAPMTRKHYQVTQYGINGTGDS" , which class would you pick?
Ans. I

Qu. Looking at "YHEAPSTRKHYQVTGYGINGTGDS" , which class would you pick?
Ans. II

Qu. Looking at "YHEAPMTRKHYQVTGYGIDGTGDS" , which class would you pick?
Ans. I

Qu. Looking at "YHEAPMTRKHYQVTGYEINGTGDS" , which class would you pick?
Ans. II

Qu. Looking at "YHEFPMTRKHYQVTGYGINGTGDS" , which class would you pick?
Ans. II

Qu. Looking at "YHEAPMTDKHYQVTGYGINGTGDS" , which class would you pick?
Ans. III

Qu. Looking at "YHEAPMTRKHYQVCGYGINGTGDS" , which class would you pick?
Ans. III

Qu. Looking at "YHEAPMTRKHGQVTGYGINGTGDS" , which class would you pick?
Ans. III

Qu. Looking at "YHEAPMTRKFYQVTGYGINGTGDS" , which class would you pick?
Ans. II
